FYI, the data here is from patent US20250304576A1.

- target: Recombinant IKKα (Homo sapiens)
- Construct: purchased Millipore, Dundee, UK
- Sequence (O15111 whole entry): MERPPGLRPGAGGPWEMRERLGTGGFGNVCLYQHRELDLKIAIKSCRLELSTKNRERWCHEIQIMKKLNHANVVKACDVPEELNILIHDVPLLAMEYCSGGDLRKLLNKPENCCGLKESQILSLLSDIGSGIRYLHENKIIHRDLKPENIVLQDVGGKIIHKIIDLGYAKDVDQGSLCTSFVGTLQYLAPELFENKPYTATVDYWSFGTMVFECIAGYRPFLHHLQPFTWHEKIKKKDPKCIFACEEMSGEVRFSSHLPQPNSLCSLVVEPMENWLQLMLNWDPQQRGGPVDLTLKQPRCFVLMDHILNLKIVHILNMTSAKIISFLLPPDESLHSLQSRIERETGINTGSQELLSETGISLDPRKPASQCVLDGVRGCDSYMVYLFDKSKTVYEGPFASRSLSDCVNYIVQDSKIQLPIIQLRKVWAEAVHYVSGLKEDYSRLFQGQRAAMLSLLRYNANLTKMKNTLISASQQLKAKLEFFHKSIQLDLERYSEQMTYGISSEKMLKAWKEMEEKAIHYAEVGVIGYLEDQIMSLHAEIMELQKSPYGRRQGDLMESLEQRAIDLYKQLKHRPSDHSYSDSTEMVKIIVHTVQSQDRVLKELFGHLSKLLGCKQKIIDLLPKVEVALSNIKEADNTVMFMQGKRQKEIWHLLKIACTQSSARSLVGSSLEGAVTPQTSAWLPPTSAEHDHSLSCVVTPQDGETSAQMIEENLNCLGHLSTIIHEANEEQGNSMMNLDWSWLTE
- assay_protocol: DELFIA IKKα kinase assay (apparent Ki, Cheng-Prusoff)
- Format: biochemical
- test_parameters: DELFIA assay (first line of an example)
- Protocol: IKKα and IKKβ inhibitory activity was determined using three different assays: a dissociation enhanced ligand fluorescent immunoassay (DELFIA) based on the protocol of HTScan™ IKKβ Kinase Assay (Cell Signaling Technology, USA); an Adapta IKKα assay (performed by Life Technologies); a Z′-LYTE™ IKKβ assay (performed by Life Technologies). […]
pKi: −log10 of the molar value.
Overview of reported pKi across a group of molecules:
value_kind: pKi

> print(dat)
                                   molecule  value.kind  reported.result
1  Nc1n[nH]c2ccc(-c3ccnc4[nH]c(CN5CCC(F)(F)CC5)cc34)cc12 [Example 261]         pKi             7.31
2  Nc1n[nH]c2ccc(-c3ccnc4[nH]c(CCN5CCCCC5)cc34)cc12 [Example 267]         pKi             7.28
3  CC(C)CCNCc1cc2c(-c3ccc4[nH]nc(N)c4c3)ccnc2[nH]1 [Example 249]         pKi             7.25
4  CC(C)(C)C#Cc1cc(-c2ccnc(Nc3nnc[nH]3)c2)cc2c(N)n[nH]c12 [Example 319]         pKi             7.57
5  Nc1n[nH]c2ccc(-c3ccnc4[nH]c(C5CCCCN5)cc34)cc12 (stereo not shown) [Example 250]         pKi             6.42
6  CC(C)(C)Cc1cc2c(-c3ccc4[nH]nc(N)c4c3)ccnc2[nH]1 [Example 220]         pKi             7.24
7  CC(C)(C)C#Cc1cc(-c2ccnc3[nH]c(CO)cc23)cc2c(N)n[nH]c12 [Example 297]         pKi             8.70
